Entry source: ChEMBL document CHEMBL3272259

- Tested on: Pentatrichomonas hominis
- ASSAY REMARKS: Antibacterial activity against Pentatrichomonas hominis ATCC 30000 after 48 hrs by ten-fold serial dilution method
- Assay type: functional
- COND: ATCC 30000, 48 h
MEASURED ATTRIBUTE: MIC

INSERT INTO assay_data (input_smiles, test_result) VALUES
  ('Br.Cn1ccnc1SCCOc1ccc(Br)cc1', '> 100 µg/mL'),
  ('COC(=O)CCCCCCCCCCSc1ncc([N+](=O)[O-])n1C', '> 100 µg/mL'),
  ('Cn1ccnc1SCCCCC(=O)O', '> 100 µg/mL');

----------
- Test system: Clostridium perfringens
- ASSAY REMARKS: Antibacterial activity against Clostridium perfringens ATCC 13124 after 24 hrs by ten-fold serial dilution method
- Type: functional
- COND: ATCC 13124, 24 h
MEASURED ATTRIBUTE: MIC (µg/mL)

INSERT INTO measurements (compound, sign, test_result) VALUES
  ('Cn1c([N+](=O)[O-])cnc1S(=O)(=O)CCCCCCCOc1ccccc1[N+](=O)[O-]', '>', 100),
  ('Cn1c([N+](=O)[O-])cnc1SCCCCCCCCC(=O)O', '=', 10),
  ('Cn1c([N+](=O)[O-])cnc1SCCCCCCCCCCCCCCCC(=O)O', '>', 100),
  ('Cn1c([N+](=O)[O-])cnc1SCCCCCCCCCC(=O)O', '=', 10),
  ('Br.Cn1ccnc1SCCOc1ccc(Br)cc1', '>', 100),
  ('Cn1c([N+](=O)[O-])cnc1SCCCCOc1ccc(C(=O)O)cc1', '=', 10),
  ('Cn1c([N+](=O)[O-])cnc1SCCOc1ccc(C#N)cc1', '=', 100),
  ('COC(=O)CCCCCCCCCCS(=O)(=O)c1ncc([N+](=O)[O-])n1C', '>', 100),
  ('Cn1c([N+](=O)[O-])cnc1SCCOc1ccc(Br)cc1', '>', 100),
  ('Cn1c([N+](=O)[O-])cnc1[S+]([O-])CCCCCCCCCCC(=O)O (stereo not given)', '>', 100),
  ('CCOC(=O)c1ccc(OCCCCCCSc2ncc([N+](=O)[O-])n2C)c([N+](=O)[O-])c1', '=', 100),
  ('Cn1c([N+](=O)[O-])cnc1SCCC(=O)O', '=', 10),
  ('Br.Cn1ccnc1SCCCCCCCCCCC(=O)O', '>', 100),
  ('Cn1ccnc1SCCOc1ccc(C#N)cc1', '>', 100),
  ('CCOC(=O)c1ccc(OCCCCCCCCCCSc2ncc([N+](=O)[O-])n2C)c([N+](=O)[O-])c1', '>', 100),
  ('Cn1c([N+](=O)[O-])cnc1SCCCCCCC(=O)O', '=', 1),
  ('Cn1c([N+](=O)[O-])cnc1SCCCCCC(=O)O', '=', 10),
  ('Br.Cn1ccnc1SCCCCOc1ccccc1', '>', 100),
  ('COC(=O)CCCCCCCCCC[S+]([O-])c1ncc([N+](=O)[O-])n1C (stereo not given)', '>', 100),
  ('Cn1c([N+](=O)[O-])cnc1SCCCOc1ccc(C(=O)O)cc1', '=', 10);

----------
In this section, each of the compounds is paired with its reported MIC.
- Test system: Bacteroides fragilis
- ASSAY REMARKS: Antibacterial activity against Bacteroides fragilis ATCC 23745 after 24 hrs by ten-fold serial dilution method
- Format: functional
- COND: ATCC 23745, 24 h
MEASURED ATTRIBUTE: MIC (µg/mL)

INSERT INTO results (compound, unit_string, sign, test_result) VALUES
  ('Cn1c([N+](=O)[O-])cnc1SCCCCCCCCCCCCCCCC(=O)O', 'µg/mL', '>', 100),
  ('Br.Cn1ccnc1SCCOc1ccc([N+](=O)[O-])cc1', 'µg/mL', '>', 100),
  ('Cn1c([N+](=O)[O-])cnc1[S+]([O-])CCCCCCCOc1ccccc1[N+](=O)[O-] (centres undefined)', 'µg/mL', '=', 100),
  ('Cn1ccnc1SCCOc1ccc(C#N)cc1', 'µg/mL', '>', 100),
  ('Cn1c([N+](=O)[O-])cnc1SCCCCCCCCCCC(=O)O', 'µg/mL', '=', 10),
  ('Cn1c([N+](=O)[O-])cnc1SCCC(=O)O', 'µg/mL', '=', 10),
  ('Br.Cn1ccnc1SCCOc1ccc(Br)cc1', 'µg/mL', '=', 100),
  ('Cn1c([N+](=O)[O-])cnc1[S+]([O-])CCOc1ccc(C#N)cc1 (centres undefined)', 'µg/mL', '=', 100),
  ('Cn1ccnc1SCCOc1ccc(C(=O)O)cc1', 'µg/mL', '>', 100),
  ('Cc1ncc([N+](=O)[O-])n1CCO [METRONIDAZOLE]', 'µg/mL', '=', 1),
  ('Cn1c([N+](=O)[O-])cnc1S(=O)(=O)CCCCCCCOc1ccccc1[N+](=O)[O-]', 'µg/mL', '>', 100),
  ('Cn1c([N+](=O)[O-])cnc1SCCOc1ccc([N+](=O)[O-])cc1', 'µg/mL', '=', 100),
  ('CCOC(=O)c1ccc(OCCCCSc2nccn2C)cc1', 'µg/mL', '>', 100),
  ('Cn1c([N+](=O)[O-])cnc1SCCCCCCCOc1ccccc1[N+](=O)[O-]', 'µg/mL', '>', 100),
  ('Cn1ccnc1SCCCCC(=O)O', 'µg/mL', '>', 100),
  ('COC(=O)CCCCCCCCCC[S+]([O-])c1ncc([N+](=O)[O-])n1C (centres undefined)', 'µg/mL', '>', 100),
  ('COC(=O)CCCCCCCCCCSc1ncc([N+](=O)[O-])n1C', 'µg/mL', '>', 100),
  ('Cn1c([N+](=O)[O-])cnc1[S+]([O-])CCCCCCCCCCC(=O)O (centres undefined)', 'µg/mL', '>', 100),
  ('Cn1c([N+](=O)[O-])cnc1SCCOc1ccc(C(=O)[O-])cc1.[Na+]', 'µg/mL', '=', 1);
